These measurements were taken from ChEMBL document CHEMBL4689842.

System: Fibroblast
Test name: Multiplex assay against human fibroblast
Type: toxicity, cell-based
Condition parameters: 24 h, 1 µM, compound concentration 1 uM, replicate 1
Measured quantity: Population Tubulin-Different-Phenotype (%)
Express it in %; write the number only.

Observe how each entry below is paired with its result.
Compound	Output unit	Quantitative readout
COc1ccc(-c2ccc3ncc4c(c3c2)n(-c2ccc(N3CCNCC3)c(C(F)(F)F)c2)c(=O)n4C)cn1.O=C(O)/C=C\C(=O)O	%	50
O=C(c1cc2c(cc1F)OC(c1ccc(F)cc1)(c1ccc(Cl)cc1Cl)O2)N1CCOCC1 (stereo unspecified)	%	50
CNC(=O)Nc1ccc(-c2nc(N3CC4CCC(C3)O4)c3cnn(C4CCC5(CC4)OCCO5)c3n2)cc1	%	60
CNC(=O)Nc1ccc2c(c1)[C@@]1(CC2)OC(=O)N(CC(=O)N(Cc2ccc(F)cc2)[C@@H](C)C(F)(F)F)C1=O	%	46

Lookup: Record request: Population Tubulin-Different-Phenotype (%) value, item O=c1[nH]c2ccccc2n1C1CCN(Cc2ccc(-c3[nH]c4cc5ncnc5cc4nc3-c3ccccc3)cc2)CC1
Found: 16

Lookup: Record request: Population Tubulin-Different-Phenotype (%) value, item CC(C)NC(=O)N1CC[C@H](NC2=Nc3cc(F)ccc3N(CC(F)F)c3ccc(Cl)cc32)C1
Found: 22

====

Test system: HEK-293T
Test name: Multiplex assay against HEK293T
Type: toxicity, cell-based
Condition parameters: human, 12 h, 10 µM, compound concentration 10 uM, replicate 2
Measured quantity: Population Normal (%)
Express it in %; write the number only.

Compound	Output unit	Population Normal (%)
Cc1cccc(CN2CCN(C(c3ccccc3)c3ccc(Cl)cc3)CC2)c1.Cl.Cl (stereo unspecified)	%	96
COc1cc2ncn(-c3cc(OCc4ccccc4C(F)(F)F)c(C(N)=O)s3)c2cc1OC [GW843682X]	%	96
CCC1=C[C@@H]2C[N@](C1)Cc1c([nH]c3ccccc13)[C@@](C(=O)OC)(c1cc3c(cc1OC)N(C)[C@H]1[C@@](O)(C(=O)OC)[C@H](OC(C)=O)[C@]4(CC)C=CCN5CC[C@]31[C@@H]54)C2.O=C(O)C(O)C(O)C(=O)O.O=C(O)C(O)C(O)C(=O)O [VINORELBINE TARTRATE]	%	97

Lookup: GET /values?readout=Population Normal (%)&system=HEK-293T&item= CCCSc1nc(N[C@@H]2C[C@H]2c2ccc(F)c(F)c2)c2nnn([C@@H]3C[C@H](OCCO)[C@@H](O)[C@H]3O)c2n1
Found: 95

Lookup: GET /values?readout=Population Normal (%)&system=HEK-293T&item= Cc1ccc2c(c1)c1c(n2CCc2ccc(C)nc2)CCN(C)C1 [LATREPIRDINE]
Found: 95

Lookup: GET /values?readout=Population Normal (%)&system=HEK-293T&item= CC(C)c1noc(N2CCC(COc3ccc(-c4ccc(S(C)(=O)=O)cc4)nc3)CC2)n1
Found: 87

====

Recorded Population Healthy Nuclei (%) values for a group of compounds are listed next.
Test system: HEK-293T
Test name: Multiplex assay against HEK293T
Assay type: toxicity, cell-based
Condition parameters: human, 12 h, 10 µM, compound concentration 10 uM, replicate 1
Express it in %; write the number only.

Observe how each entry below is paired with its result.
Compound	Quantitative readout
CCCSc1nc(N[C@@H]2C[C@H]2c2ccc(F)c(F)c2)c2nnn([C@@H]3C[C@H](OCCO)[C@@H](O)[C@H]3O)c2n1 [TICAGRELOR]	4
COc1ccc(-c2ccc3ncc4c(c3c2)n(-c2ccc(N3CCNCC3)c(C(F)(F)F)c2)c(=O)n4C)cn1.O=C(O)/C=C\C(=O)O [BGT-226]	0
C=CC(=O)Nc1cccc(Oc2nc(Nc3ccc(N4CCN(C)CC4)cc3OC)ncc2Cl)c1	70
Cc1nc(N2CC[C@H](O)C2)ncc1-c1cc(C(F)(F)F)cc2[nH]ncc12	70
Cc1ccc(C)c(Oc2ccncc2C(=O)N2CCN(C3CC3)c3ccccc32)c1	23

Lookup: GET /values?readout=Population Healthy Nuclei (%)&system=HEK-293T&item= CC(C)(C)NC[C@H](O)COc1nsnc1N1CCOCC1 [TIMOLOL]
Found: 40

Lookup: GET /values?readout=Population Healthy Nuclei (%)&system=HEK-293T&item= CN1CCN(Cc2ccc(Nc3ncc(Cl)c(Nc4ccccc4S(=O)(=O)N(C)C)n3)cc2)CC1 [DUBERMATINIB]
Found: 40

Lookup: GET /values?readout=Population Healthy Nuclei (%)&system=HEK-293T&item= COc1ccccc1CN[C@H]1C2CCN(CC2)[C@H]1C(c1ccccc1)c1ccccc1 [CP-96345]
Found: 27

====

Test system: HEK-293T
Test name: Multiplex assay against HEK293T
Type: toxicity, cell-based
Condition parameters: human, 24 h, 1 µM, compound concentration 1 uM, replicate 2
Recorded Total Cell Count values for a group of molecules are listed next.
Respond with the number and no other words.

Observe how each entry below is paired with its result.
Structure smiles	Quantitative readout
CC(C)OC(=O)N1CCC(Oc2ncnc3c2cnn3-c2ccc(S(C)(=O)=O)cc2F)CC1	277
O=c1[nH]c2ccccc2n1C1CCN(Cc2ccc(-c3[nH]c4cc5ncnc5cc4nc3-c3ccccc3)cc2)CC1	2517
CC(C)(C)NC[C@H](O)COc1nsnc1N1CCOCC1	363
O=c1cc(N2CCOCC2)oc2c(-c3cccc4c3sc3ccccc34)cccc12	272

Lookup: Record request: Total Cell Count value, item Cc1ccc(C)c(Oc2ccncc2C(=O)N2CCN(C3CC3)c3ccccc32)c1
Found: 272

====

Test system: Fibroblast
Test name: Multiplex assay against human fibroblast
Type: toxicity, cell-based
Condition parameters: 12 h, 1 µM, compound concentration 1 uM, replicate 1
Could you please mark T for values of Population Apoptotic (%) below 70% and F for values at or above it?

As a guide, the following entries are already answered.
Compound	Assay target	Assigned label
C[C@]12CC[C@@H]3c4ccc(O)cc4CC[C@H]3[C@@H]1CC[C@@H]2O	Fibroblast	F
CCc1nn(CCCN2CCN(c3cccc(Cl)c3)CC2)c(=O)n1CCOc1ccccc1.Cl [NEFAZODONE HYDROCHLORIDE]	Fibroblast	T
Cc1c[nH]c2nccc(Oc3c(F)cc(Nc4cc(Cl)nc(N)n4)cc3F)c12	Fibroblast	T
C=CC(=O)Nc1ccc2[nH]c(=O)n(C3CCN(Cc4ccc(-c5nc6cc[nH]c(=O)c6cc5-c5ccccc5)cc4)CC3)c2c1	Fibroblast	T
CN1CCN(Cc2ccc(Nc3ncc(Cl)c(Nc4ccccc4S(=O)(=O)N(C)C)n3)cc2)CC1	Fibroblast	T

Lookup: Please determine if O=c1cc(N2CCOCC2)oc2c(-c3cccc4c3sc3ccccc34)cccc12 is below 70% in terms of Population Apoptotic (%).
Found: T

====

System: U2OS
Test name: Multiplex assay against U2OS
Format: toxicity, cell-based
Condition parameters: human, 24 h, 10 µM, compound concentration 10 uM, replicate 2
Recorded Population Tubulin-Different-Phenotype (%) values for a group of molecules are listed next.
Please answer using the number first and the unit second.

Molecule	Result
Cl.O=C(O)c1cc(-c2ccc(C3CCNCC3)cc2)c2ccc(-c3ccc(C(F)(F)F)cc3)cc2c1	16%
COc1cc(Nc2nccc(-c3cnn4nc(OC)ccc34)n2)cc(C(F)(F)F)c1	11%
C[C@]12CC[C@@H]3c4ccc(O)cc4CC[C@H]3[C@@H]1CC[C@@H]2O	43%
C=CC(=O)Nc1cccc(Oc2nc(Nc3ccc(N4CCN(C)CC4)cc3OC)ncc2Cl)c1	17%

Lookup: Record request: Population Tubulin-Different-Phenotype (%) value, item C=CC(=O)Nc1cccc(Sc2nc(Nc3ccc(N4CCN(C)CC4)cc3)ncc2Cl)c1
Found: 22%

Lookup: Record request: Population Tubulin-Different-Phenotype (%) value, item CC(C)OC(=O)N1CCC(Oc2ncnc3c2cnn3-c2ccc(S(C)(=O)=O)cc2F)CC1
Found: 31%

Lookup: Record request: Population Tubulin-Different-Phenotype (%) value, item CNC(=O)Nc1ccc2c(c1)[C@@]1(CC2)OC(=O)N(CC(=O)N(Cc2ccc(F)cc2)[C@@H](C)C(F)(F)F)C1=O
Found: 37%

Lookup: Record request: Population Tubulin-Different-Phenotype (%) value, item O=c1[nH]c2ccccc2n1C1CCN(Cc2ccc(-c3[nH]c4cc5ncnc5cc4nc3-c3ccccc3)cc2)CC1
Found: 100%

Lookup: Record request: Population Tubulin-Different-Phenotype (%) value, item CC(C)(C)NC[C@H](O)COc1nsnc1N1CCOCC1
Found: 4%

====

Recorded Population Membrane Permeable-Phenotype (%) values for a group of compounds are listed next.
System: HEK-293T
Test name: Multiplex assay against HEK293T
Assay type: toxicity, cell-based
Condition parameters: human, 12 h, 1 µM, compound concentration 1 uM, replicate 1
Please answer using the number first and the unit second.

Observe how each entry below is paired with its result.
Structure smiles	Result
C=CC(=O)Nc1cccc(Sc2nc(Nc3ccc(N4CCN(C)CC4)cc3)ncc2Cl)c1	22%
CC(C)c1noc(N2CCC(COc3ccc(-c4ccc(S(C)(=O)=O)cc4)nc3)CC2)n1	8%
COC(=O)C1=C(C)NC(C)=C(C(=O)OCCCN2CCC(c3ccccc3)(c3ccccc3)CC2)[C@H]1c1cccc([N+](=O)[O-])c1	2%

Now for the compound whose Population Membrane Permeable-Phenotype (%) we want.
Lookup: Record request: Population Membrane Permeable-Phenotype (%) value, item CC(C)CC(=O)Nc1[nH]nc2c1CN(C(=O)C1CCN(C)CC1)C2(C)C
Found: 5%
